Where these numbers come from: the RNAGym collection of RNA variant scans (doi:10.1093/molbev/msab373)

B1: Azoarcus group I ribozyme (parent)
chain: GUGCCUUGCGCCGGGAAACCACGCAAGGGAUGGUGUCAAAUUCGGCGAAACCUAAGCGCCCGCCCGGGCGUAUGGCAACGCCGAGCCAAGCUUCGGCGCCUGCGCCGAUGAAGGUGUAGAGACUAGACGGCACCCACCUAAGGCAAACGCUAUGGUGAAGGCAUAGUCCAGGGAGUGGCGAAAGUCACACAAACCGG

- Variants of: B1
- test.summary: reverse-splicing fitness (ratio to wild type); higher = more active; in vitro selection; Mg2+ level not given
parameter.measured: reverse-splicing fitness

// worked examples, reverse-splicing fitness included
var	reverse-splicing fitness
C82A A111G A120G A145C C150A C169U U176G	0.00484
C82A A111C A120G A145C C150A C169U U176G	0.00495
C82A A111U A120U A145G C150G U176G	0.00434
C82A A111C A145U C150G C169G U176A	0.00679
C82U A111U A120G A145G C150A C169U	0.00848
C82G A111U A120U A145C C150G C169U U176A	0.00273

Give its reverse-splicing fitness value. Item: A120C A145U C169A U176C 0.0127

What value of reverse-splicing fitness has been recorded for this entry: A120U A145G U176A 0.704

Form field: reported reverse-splicing fitness of C82G A145C C150G C169G U176A 0.00973

Reported reverse-splicing fitness for C82G A120U A145G C169A U176A : what is it? 0.00356

Item under review: C82G A111G A120U A145U C150U U176G . Reported reverse-splicing fitness? 0.00444

Could you tell me which reverse-splicing fitness is on file for C82A A111G A120G C150G C169G ? 0.00739

Which reverse-splicing fitness is listed for C82A A111G A120C A145C C150G C169A ? 0.0102

Would you kindly share the measured reverse-splicing fitness for C82A A120G A145G ? 0.0225

Quick check: reverse-splicing fitness of C82U A111C A120U A145U C150U C169U U176C ? 0.003

Any idea what reverse-splicing fitness was measured for A111U A145C C150U C169U ? 0.0312

Any idea what its reverse-splicing fitness is? The variant is C82A A111C A120U A145G C150G C169U 0.00759

Recorded reverse-splicing fitness for A111G A120U A145G C150A C169G U176G , please? 0.00256

I'd like to know its reverse-splicing fitness. The variant in question is C82A A120C U176A 0.04

Which measured reverse-splicing fitness value corresponds to C82U A111C A120U A145U C150A U176G ? 0.00247

For the variant shown here, C82U C150A , give the reported reverse-splicing fitness. 0.0698

Requested field: reverse-splicing fitness. Item: C82G A111C A120C A145U C169G U176A 0.0141
